system_under_test: UniProtKB Q1A7N1
Sequence (Q1A7N1 1-1104): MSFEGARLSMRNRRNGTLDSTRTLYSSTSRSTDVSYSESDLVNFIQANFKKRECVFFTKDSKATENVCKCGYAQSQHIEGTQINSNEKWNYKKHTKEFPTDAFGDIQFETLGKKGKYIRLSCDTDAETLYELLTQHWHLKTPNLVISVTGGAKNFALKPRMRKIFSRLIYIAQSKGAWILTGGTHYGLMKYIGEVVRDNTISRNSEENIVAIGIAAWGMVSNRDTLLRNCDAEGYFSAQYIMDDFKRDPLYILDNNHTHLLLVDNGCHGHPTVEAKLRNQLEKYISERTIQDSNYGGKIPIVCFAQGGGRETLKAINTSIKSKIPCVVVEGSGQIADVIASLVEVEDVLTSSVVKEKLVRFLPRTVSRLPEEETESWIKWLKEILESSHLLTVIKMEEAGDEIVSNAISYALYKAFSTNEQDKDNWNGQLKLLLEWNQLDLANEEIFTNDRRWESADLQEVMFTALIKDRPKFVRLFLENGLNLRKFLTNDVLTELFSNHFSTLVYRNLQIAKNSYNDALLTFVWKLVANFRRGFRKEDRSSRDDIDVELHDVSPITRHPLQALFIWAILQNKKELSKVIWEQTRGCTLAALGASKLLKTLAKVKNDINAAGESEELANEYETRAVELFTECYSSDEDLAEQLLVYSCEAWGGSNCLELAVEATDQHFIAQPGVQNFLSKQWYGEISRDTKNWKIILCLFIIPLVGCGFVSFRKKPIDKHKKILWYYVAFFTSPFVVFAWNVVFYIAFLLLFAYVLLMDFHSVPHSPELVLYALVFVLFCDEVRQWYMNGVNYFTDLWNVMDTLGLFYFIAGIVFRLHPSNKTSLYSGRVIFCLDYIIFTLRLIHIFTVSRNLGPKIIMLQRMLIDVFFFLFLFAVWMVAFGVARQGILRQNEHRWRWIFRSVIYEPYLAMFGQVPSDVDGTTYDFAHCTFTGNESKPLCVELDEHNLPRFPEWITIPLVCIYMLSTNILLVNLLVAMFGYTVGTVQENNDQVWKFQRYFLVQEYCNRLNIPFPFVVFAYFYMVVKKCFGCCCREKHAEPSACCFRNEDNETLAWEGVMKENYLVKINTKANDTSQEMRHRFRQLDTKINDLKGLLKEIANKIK
measurement_notes: In Vitro Canine TRPM8 Functional Assay (intracellular Ca2+ fluorescence, icilin activation)
Type: cell-based
settings: HEK293 cells stably expressing canine TRPM8; icilin challenge at ~80% maximal response; eight-point dose-response; single determinations; read-out: IC50 (μM) @ 0.2
Record form. Attribute: IC50. Fill in for each entry.
Numbers only, in µM.

Examples with their reported IC50 follow.
[[record]]
structure = "Cc1c(N(Cc2ccc(F)c(C(F)(F)F)c2)S(=O)(=O)NCCCC(=O)O)sc2ccccc12"
experimental_value = 0.062

[[record]]
structure = "Cc1c(N(Cc2ccc(OC(F)(F)F)cc2)S(=O)(=O)N2CCCCC2)sc2ccccc12"
experimental_value = 0.0036

[[record]]
structure = "Cc1c(N(Cc2ccc(OC(F)(F)F)cc2)S(=O)(=O)N2CCC(C(=O)NCCN(C)C)CC2)sc2ccccc12"
experimental_value = 0.061


Continue with the molecule presented below.
Item Cc1c(N(Cc2ccc(OC(F)(F)F)cc2)S(=O)(=O)N2CCOCC2)sc2ccccc12 ; assay system UniProtKB Q1A7N1; IC50 reported as 0.0057
